This collection of values is drawn from the Human Domainome abundance scans (Beltran et al. 2025).

B1: Mineralocorticoid receptor, residues 600 to 675; numbered along this chain, P08235 (parent)
chain: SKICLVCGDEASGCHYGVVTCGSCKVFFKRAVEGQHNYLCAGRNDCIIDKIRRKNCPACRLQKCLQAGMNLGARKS

Variants of: B1
PROCEDURE_SUMMARY: abundance fitness (aPCA) (normalised: wild type 0, dead -1); higher = more abundant; growth selection in yeast, the domain comes from the species named
SETUP_CONDITIONS: Homo sapiens
ASSAY_ENDPOINT: abundance fitness
Please give only the number in your answer, with no unit.

Req: Report abundance fitness for `F27Y`
Resp: -0.33

---
Req: Indicate its recorded abundance fitness; the variant in question is `R53P`
Resp: -0.056

Req: Let me know recorded abundance fitness for `V18G` , thanks.
Resp: -0.117

Req: Output measured abundance fitness for this item: `C24R`
Resp: -0.855

Req: Determine its reported abundance fitness: `G42I`
Resp: -0.033

Req: Look up and report measured abundance fitness for this entry: `V26W`
Resp: 0.009
